Every entry's value here was drawn from patent US20210115040A1.

- ASSAY SYSTEM: recombinant human Meningioma Expressed Antigen 5 (MGEA5), also referred to as O-GlcNAcase (OGA) (Homo sapiens, UniProt O60502)
- Construct: Full length OGA enzyme was purchased at OriGene (cat #TP322411); purchased OriGene TP322411
- Sequence (O60502 whole entry): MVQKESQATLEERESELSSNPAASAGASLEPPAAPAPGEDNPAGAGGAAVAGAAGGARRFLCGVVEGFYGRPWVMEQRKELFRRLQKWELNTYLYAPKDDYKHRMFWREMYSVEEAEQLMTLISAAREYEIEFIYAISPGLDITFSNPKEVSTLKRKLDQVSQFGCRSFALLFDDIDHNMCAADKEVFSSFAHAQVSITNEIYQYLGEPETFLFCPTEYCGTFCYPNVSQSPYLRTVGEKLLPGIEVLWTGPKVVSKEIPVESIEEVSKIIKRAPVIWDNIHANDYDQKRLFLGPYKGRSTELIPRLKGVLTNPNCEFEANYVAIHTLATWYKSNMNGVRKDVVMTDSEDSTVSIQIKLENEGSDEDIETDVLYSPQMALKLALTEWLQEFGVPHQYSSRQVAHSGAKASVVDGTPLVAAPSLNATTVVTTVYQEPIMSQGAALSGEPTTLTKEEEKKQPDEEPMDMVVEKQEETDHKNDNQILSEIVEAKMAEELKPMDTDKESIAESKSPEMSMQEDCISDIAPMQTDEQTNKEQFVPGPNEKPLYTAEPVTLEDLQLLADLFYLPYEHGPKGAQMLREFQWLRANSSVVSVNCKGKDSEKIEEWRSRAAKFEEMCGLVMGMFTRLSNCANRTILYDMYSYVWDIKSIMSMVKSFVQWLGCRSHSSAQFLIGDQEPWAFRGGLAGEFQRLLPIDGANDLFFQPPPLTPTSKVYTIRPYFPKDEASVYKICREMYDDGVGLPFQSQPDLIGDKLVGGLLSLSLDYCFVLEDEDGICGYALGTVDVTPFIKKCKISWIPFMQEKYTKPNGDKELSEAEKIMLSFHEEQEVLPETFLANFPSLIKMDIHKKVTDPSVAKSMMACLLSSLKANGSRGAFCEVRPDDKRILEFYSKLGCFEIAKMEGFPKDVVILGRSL
- MEASUREMENT PROTOCOL: OGA biochemical assay (inhibition of FM-GlcNAc hydrolysis, fluorescence)
- PARTICULARS: FM-GlcNAc substrate, 6 h at room temperature, read-out: Enzymatic hOGA, pIC50 (converted)
MEASUREMENT NAME: IC50 (nM)

These solved cases illustrate the format of a correct answer.
1. Cc1cc(C[C@H]2CCCN(C(C)c3ccc4oc(C)nc4n3)C2)cc(C)n1 (mixture of isomers)
3.16
2. Cc1cc(OC[C@H]2CCCN(C(C)c3cc4nc(C)sc4cc3F)C2)cc(C)n1 (stereo partly drawn)
2.51
3. Cc1cc(C[C@H]2CCN(C(C)c3cnc4[nH]c(C)nc4c3)C2)cc(C(F)(F)F)n1 (stereo partly drawn)
501
4. Cc1cc(OC[C@@H]2CCN(C(C)c3ccc4sc(C)nc4n3)C2)cc(C)n1 (mixture of isomers)
398

[A] COc1cc([C@H]2CCCN([C@@H](C)c3cnc4[nH]c(C)nc4c3)C2)cc(C(F)(F)F)n1
[B] Cc1cc(CO[C@H]2CCCN(C(C)c3cc4nc(C)sc4cc3F)C2)cc(C)n1 (mixture of isomers) [Compound 99]
[C] Cc1cc([C@H]2CCCN([C@@H](C)c3ccc4sc(C)nc4n3)C2)nc(C)n1 (racemic)
[D] Cc1cc(C[C@H]2CCCN(Cc3ccc4cn(C)nc4c3)C2)cc(C)n1
[ask] List these items ordered by IC50, big to small. Output spec: a listing of the labels in the requested order.
[reply] C, D, A, B
